# credit: ChEMBL document CHEMBL5126517

molecular target: Dual specificity tyrosine-phosphorylation-regulated kinase 1A (Homo sapiens, UniProt Q13627); test: Inhibition of GST-fused human recombinant DYRK1A expressed in Escherichia coli using GRSRSRSRSRSR peptide as substrate incubated for 30 mins in presence of ATP by scintillation counting method
Exercise: for every item that follows, state its recorded pIC50.
The scale used: pIC50 is minus the common logarithm of the concentration in molar units.

Supply recorded pIC50 for O=C1NC(Nc2ccccc2)=N/C1=C\c1ccc2c(c1)CCO2 here.
7.49

Supply recorded pIC50 for O=C1NC(N2CCC(N3CCCCC3)CC2)=N/C1=C\c1ccc2c(c1)OCO2 here.
5.96

Supply recorded pIC50 for O=C1NC(N2CCCC2)=N/C1=C\c1ccc2c(c1)OCO2 here.
6.20

Supply recorded pIC50 for CN1CCN(c2ccc(NC3=N/C(=C\c4ccc5c(c4)OCO5)C(=O)N3)cc2)CC1 here.
7.92

Supply recorded pIC50 for COc1ccc(/C=C2\N=C(Nc3ccccc3)NC2=O)cc1 here.
6.77

Supply recorded pIC50 for Cc1ccc(C)c(NC2=N/C(=C\c3ccc4c(c3)OCO4)C(=O)N2)c1 here.
7.62

Supply recorded pIC50 for COc1cc(/C=C2\N=C(Nc3ccc(N4CCCCC4)cc3)NC2=O)ccc1O here.
6.55

Supply recorded pIC50 for CCSC1=N/C(=C\c2ccc3c(c2)OCO3)C(=O)N1 here.
7.48

Supply recorded pIC50 for Cc1ccc(NC2=N/C(=C\c3ccc4c(c3)OCO4)C(=O)N2)cc1 here.
7.74

Supply recorded pIC50 for CN1CCN(c2ccc(NC3=N/C(=C\C4=COc5ccccc5O4)C(=O)N3)cc2)CC1 here.
8.15

Supply recorded pIC50 for O=C1NC(Nc2ccc(F)cc2)=N/C1=C\c1ccc2c(c1)OCO2 here.
7.55

Supply recorded pIC50 for O=C1NC(Nc2ccc(Oc3ccccc3)cc2)=N/C1=C\c1ccc2c(c1)OCO2 here.
6.04
